- Test system: biotinyl-Leu-oxazolone
- assay_remarks: self-aminoacylation, catalytic enhancement (BLO) (fold over background); higher = more active; k-Seq, kA / k0A0; sequences stand for … in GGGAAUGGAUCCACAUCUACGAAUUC…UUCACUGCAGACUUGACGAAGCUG
Variants at the floor of the assay were thinned out.
Reported self-aminoacylation values for a set of sequences
readout_name: self-aminoacylation

- sequence_text: "AUUCACCUAGGUCCUCUGGUG [Fam2.2 aminoacylation ribozyme variant]"
  value: 5.9
- sequence_text: "CUACACUUUAAGCAAUCGGUC [Fam1B.1 aminoacylation ribozyme variant]"
  value: 0.585
- sequence_text: "AUUCCCCUAGGUCAUCGAGUG [Fam2.2 aminoacylation ribozyme variant]"
  value: 15
- sequence_text: "ACUACCCUGGUCAUCAAGUGA [Fam2.1 aminoacylation ribozyme variant]"
  value: 2.37
- sequence_text: "CUACUUCAAACAAUCUGUUUG [Fam1A.1 aminoacylation ribozyme variant]"
  value: 0.76

###

- Test system: biotinyl-Leu-oxazolone
- assay_remarks: self-aminoacylation, catalytic enhancement (BLO) (fold over background); higher = more active; k-Seq, kA / k0A0; sequences stand for … in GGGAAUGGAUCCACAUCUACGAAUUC…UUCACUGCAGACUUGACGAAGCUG
Variants at the floor of the assay were thinned out.
Returns true (1) if the recorded self-aminoacylation is greater than or equal to 1, and false (0) otherwise.

- sequence_text: "CUACUUCAAAGAAUCGGCCUG [Fam1A.1 aminoacylation ribozyme variant]"
  label: "true (1)"
- sequence_text: "CUACUUCAAAGAAUCGGACUG [Fam1A.1 aminoacylation ribozyme variant]"
  label: "false (0)"
- sequence_text: "AAGUUCGCUAAUCGUCGCAAG [Fam3.1 aminoacylation ribozyme variant]"
  label: "true (1)"
- sequence_text: "CCACGCUUCAAGCAAUAGGUC [Fam1B.1 aminoacylation ribozyme variant]"
  label: "false (0)"
- sequence_text: "AUUCACAUAGGUCAUCGGGUG [Fam2.2 aminoacylation ribozyme variant]"
  label: "true (1)"
- sequence_text: "AAGUUUGCUAAAAGUCGCAAU [Fam3.1 aminoacylation ribozyme variant]"
  label: "false (0)"
- sequence_text: "CCACACUUCAGGUAAUCGGUC [Fam1B.1 aminoacylation ribozyme variant]"
  label: "false (0)"

###

- Tested on: biotinyl-Trp-oxazolone
- assay_remarks: self-aminoacylation, catalytic enhancement (BWO) (fold over background); higher = more active; k-Seq, kA / k0A0; sequences stand for … in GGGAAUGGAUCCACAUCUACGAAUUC…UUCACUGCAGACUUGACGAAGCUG
This sample holds only a part of the variants without activity.
Returns label 1 if the recorded self-aminoacylation is greater than or equal to 10, and label 0 otherwise.

- sequence_text: "CCACACUUCAAAGAAUCGGUC [Fam1B.1 aminoacylation ribozyme variant]"
  target_under_test: "biotinyl-Trp-oxazolone"
  label: "label 0"
- sequence_text: "CUACUUAAAACAAACGGUCUG [Fam1A.1 aminoacylation ribozyme variant]"
  target_under_test: "biotinyl-Trp-oxazolone"
  label: "label 0"
- sequence_text: "AAGGUUGCUAAUAGUCGCAAU [Fam3.1 aminoacylation ribozyme variant]"
  target_under_test: "biotinyl-Trp-oxazolone"
  label: "label 0"
- sequence_text: "AUUACCCUGUUCAUCGCGUGA [Fam2.1 aminoacylation ribozyme variant]"
  target_under_test: "biotinyl-Trp-oxazolone"
  label: "label 1"
- sequence_text: "CCAGACUUCAAGCAGUCGGUC [Fam1B.1 aminoacylation ribozyme variant]"
  target_under_test: "biotinyl-Trp-oxazolone"
  label: "label 0"
- sequence_text: "CUACACUUCAACCAAUCGGUC [Fam1B.1 aminoacylation ribozyme variant]"
  target_under_test: "biotinyl-Trp-oxazolone"
  label: "label 1"
- sequence_text: "AAGUUUGCUAAUAGUCUAAAG [Fam3.1 aminoacylation ribozyme variant]"
  target_under_test: "biotinyl-Trp-oxazolone"
  label: "label 0"
